- System: HCMV AD169 clone with mutation in UL86 K1338N
- MEASUREMENT DESCRIPTION: Susceptibility (IC50) of resistant HCMV AD169 clone K1338N
- Type: cell-based, Human cytomegalovirus
- TEST CONTEXT: Human betaherpesvirus 5, read-out: IC 50, K1338N
PARAMETER: IC50

Worked examples follow.
1) CC(=O)Nc1ccc(NC(=O)Nc2ccc(F)c(Cl)c2)cc1 [Example 3] ... > 20 µM
2) Nc1nc(O)c2ncn(COC(CO)CO)c2n1 [Ganciclovir, reference compound] ... 1 µM

// field: IC50; key: CCCCC(=O)Nc1ccc(NC(=O)Nc2ccc(F)c(Cl)c2)cc1 [Example 4] ; value = > 60 µM

###

- Test system: HCMV AD169 clone with mutation in UL86 K1338N
- MEASUREMENT DESCRIPTION: Susceptibility (IC50) of resistant HCMV AD169 clone K1338N
- Assay type: cell-based, Human cytomegalovirus
- TEST CONTEXT: Human betaherpesvirus 5, read-out: IC 50, K1338N
pIC50: −log10 of the molar value.
PARAMETER: pIC50

Worked examples follow.
1) Cc1cc(Cl)ccc1NC(=O)Nc1cccc(C2=NNC(=O)C2(C)C)c1 [Example 8] ... < 4.68
2) CC1(C)CC(=O)NN=C1c1cccc(NC(=O)Nc2ccc(F)cc2F)c1 [Example 1] ... < 3.90
3) O=C(Nc1cccc(-c2n[nH]c(=O)n2C2CCCCC2)c1)Nc1ccc(F)c(Cl)c1 [Example 7] ... 4.82
4) CC1(C)CC(=O)NN=C1c1cc(NC(=O)Nc2cc(F)ccc2F)ccc1O [Example 2] ... < 3.90

// below: pIC50 requested for another compound
// field: pIC50; key: CCCCS(=O)(=O)Nc1cccc(NC(=O)Nc2ccc(F)c(Cl)c2)c1 [Example 5] ; value = < 5.05

###

Listing of recorded IC50 by entry.
- Test system: HCMV AD169 clone with mutation in UL86 D441N
- MEASUREMENT DESCRIPTION: Susceptibility (IC50) of resistant HCMV AD169 clone D441N
- Format: cell-based, Human cytomegalovirus
- TEST CONTEXT: Human betaherpesvirus 5, read-out: IC 50, D441N
- Experimental: The test compounds are employed as 50 millimolar (mM) solutions in dimethyl sulfoxide (DMSO). Ganciclovir®, Foscarnet® and Cidofovir® are used as reference compounds. […] The plates are then assessed visually using an overhead microscope (plaque multiplier from Technomara). For this purpose, NHDF cells are seeded in tissue culture vessels. […] Finally, the susceptibility to various substances (IC50 determination) is determined as described above. […]
Quick note: give the figure in nM, leave out the unit.

1) Nc1nc(O)c2ncn(COC(CO)CO)c2n1 [Ganciclovir, reference compound] ... 1000

// field: IC50; key: CCCCC(=O)Nc1ccc(NC(=O)Nc2ccc(F)c(Cl)c2)cc1 ; value = 500

// field: IC50; key: CC1(C)CC(=O)NN=C1c1cccc(NC(=O)Nc2ccc(F)cc2F)c1 ; value = 20000

// field: IC50; key: CC1(C)CC(=O)NN=C1c1cc(NC(=O)Nc2cc(F)ccc2F)ccc1O ; value = 1500

###

- Test system: HCMV AD169 clone with mutation in UL86 A689T
- MEASUREMENT DESCRIPTION: Susceptibility (IC50) of resistant HCMV AD169 clone A689T
- Type: cell-based, Human cytomegalovirus
- TEST CONTEXT: Human betaherpesvirus 5, read-out: IC 50, A689T
- Procedure: The test compounds are employed as 50 millimolar (mM) solutions in dimethyl sulfoxide (DMSO). Ganciclovir®, Foscarnet® and Cidofovir® are used as reference compounds. […] The plates are then assessed visually using an overhead microscope (plaque multiplier from Technomara). For this purpose, NHDF cells are seeded in tissue culture vessels. […] Finally, the susceptibility to various substances (IC50 determination) is determined as described above. […]
Listing of recorded IC50 by entry.
Quick note: give the figure in nM, leave out the unit.

// field: IC50; key: Nc1nc(O)c2ncn(COC(CO)CO)c2n1 [Ganciclovir, reference compound] ; value = 1000

// field: IC50; key: CC1(C)CC(=O)NN=C1c1cccc(NC(=O)Nc2ccc(F)cc2F)c1 ; value = 6000

// field: IC50; key: CCCCS(=O)(=O)Nc1cccc(NC(=O)Nc2ccc(F)c(Cl)c2)c1 ; value = 400

// field: IC50; key: CC1(C)CC(=O)NN=C1c1cc(NC(=O)Nc2cc(F)ccc2F)ccc1O ; value = 1000

###

- Tested on: HCMV AD169 clone with mutation in UL86 A689T
- MEASUREMENT DESCRIPTION: Susceptibility (IC50) of resistant HCMV AD169 clone A689T
- Assay type: cell-based, Human cytomegalovirus
- TEST CONTEXT: Human betaherpesvirus 5, read-out: IC 50, A689T
Listing of recorded IC50 by entry.
Quick note: give the figure in µM, leave out the unit.

1. O=C(Nc1cccc(-c2n[nH]c(=O)n2C2CCCCC2)c1)Nc1ccc(F)c(Cl)c1 ... 4.5

// below: IC50 requested for another molecule
// field: IC50; key: CCCCC(=O)Nc1ccc(NC(=O)Nc2ccc(F)c(Cl)c2)cc1 ; value = 0.5
